Molecular target: UniProtKB Q05513
Sequence (Q05513 whole entry): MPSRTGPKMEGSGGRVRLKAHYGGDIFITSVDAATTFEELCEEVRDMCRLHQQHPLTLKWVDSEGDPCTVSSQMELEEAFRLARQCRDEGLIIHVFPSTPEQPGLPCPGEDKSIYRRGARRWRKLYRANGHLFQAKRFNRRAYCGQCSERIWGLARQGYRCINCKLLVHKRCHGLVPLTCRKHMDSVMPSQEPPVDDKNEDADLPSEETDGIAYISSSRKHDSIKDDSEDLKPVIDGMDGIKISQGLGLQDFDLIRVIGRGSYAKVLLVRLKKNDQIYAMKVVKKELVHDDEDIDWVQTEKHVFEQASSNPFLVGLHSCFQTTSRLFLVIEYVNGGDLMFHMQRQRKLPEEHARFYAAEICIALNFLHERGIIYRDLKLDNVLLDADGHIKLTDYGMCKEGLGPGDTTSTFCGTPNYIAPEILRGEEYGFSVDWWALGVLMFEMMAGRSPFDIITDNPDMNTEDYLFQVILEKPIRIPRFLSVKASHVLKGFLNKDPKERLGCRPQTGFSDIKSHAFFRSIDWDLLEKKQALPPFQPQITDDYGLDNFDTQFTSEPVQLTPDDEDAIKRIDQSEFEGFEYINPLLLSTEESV
test-readout: Ki

Query: Give Ki for the following compound: `CC(C)[C@@](C)(O)[C@@H]1CN(c2nc(-c3n[nH]c4ncccc34)c(F)cc2Cl)CCN1`
Reply: > 5 µM

###

Target: Protein kinase C epsilon type (Homo sapiens, UniProt Q02156)
Sequence (Q02156 whole entry): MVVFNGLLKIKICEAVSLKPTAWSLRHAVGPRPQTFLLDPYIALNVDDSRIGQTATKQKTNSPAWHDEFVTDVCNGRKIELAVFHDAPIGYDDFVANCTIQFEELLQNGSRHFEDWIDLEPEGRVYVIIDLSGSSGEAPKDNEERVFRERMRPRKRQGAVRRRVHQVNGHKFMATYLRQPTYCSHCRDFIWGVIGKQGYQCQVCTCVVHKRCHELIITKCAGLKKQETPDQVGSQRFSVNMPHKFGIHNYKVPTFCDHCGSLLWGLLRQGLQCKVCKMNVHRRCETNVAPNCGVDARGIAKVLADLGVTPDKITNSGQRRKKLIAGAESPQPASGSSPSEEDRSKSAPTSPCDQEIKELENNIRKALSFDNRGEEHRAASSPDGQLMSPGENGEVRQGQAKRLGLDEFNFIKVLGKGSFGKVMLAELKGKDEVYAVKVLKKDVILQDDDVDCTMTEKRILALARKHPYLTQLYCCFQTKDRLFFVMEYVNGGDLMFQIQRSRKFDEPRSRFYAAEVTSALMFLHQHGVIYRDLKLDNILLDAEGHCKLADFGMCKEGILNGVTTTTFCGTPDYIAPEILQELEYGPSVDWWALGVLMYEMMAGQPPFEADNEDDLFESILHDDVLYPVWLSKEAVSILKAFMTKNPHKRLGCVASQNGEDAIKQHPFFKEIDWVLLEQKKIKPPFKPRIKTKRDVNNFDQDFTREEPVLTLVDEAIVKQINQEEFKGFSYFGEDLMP
test-readout: pKi
The read-out pKi is expressed as -log10 of concentration in moles per litre.

Query: Enter measured pKi, system Protein kinase C epsilon type (Homo sapiens, UniProt Q02156), for the molecule shown: `CC(C)[C@@](C)(O)[C@@H]1CN(c2nc(-c3n[nH]c4ncccc34)c(F)cc2Cl)CCN1`
Reply: 9.00
